Data export: pKi values recorded with mGAT1 (Mus musculus).
Scale explanation: pKi corresponds to minus log10 of a concentration expressed in moles per litre.

COMPOUND: O=C(O)C1CCCN(CC=C=C(c2ccccc2)c2ccccc2)C1 (racemic)
pKi: 5.93
--
COMPOUND: COc1ccc2c(c1)CCCC2=C=CCN1CCCC(C(=O)O)C1 (racemic)
pKi: 4.23

Under mGAT1 (Mus musculus): pKi value of O=C(O)C1CCCN(CCC=C=C(c2ccc(Cl)cc2)c2ccc(Cl)cc2)C1 (racemic) [rac-11d] ?
6.20

Checklist item: pKi tested on mGAT1 (Mus musculus), entry O=C(O)C1CCCN(CCC=C=C(c2ccc(F)cc2)c2ccc(F)cc2)C1 (racemic) [rac-11c] , value?
5.49

Form: Entry = O=C(O)[C@@H]1CCCN(CC=C=C(c2ccc(Cl)cc2)c2ccc(Cl)cc2)C1 [(R)-8d] | System = mGAT1 (Mus musculus) | pKi = ____
6.99

What value of pKi on mGAT1 (Mus musculus) does O=C(O)C1CCCN(CCC=C=C(c2ccccc2)c2ccccc2)C1 (racemic) [rac-11a] have?
5.26

Form entry - test system: mGAT1 (Mus musculus); read-out: pKi; compound: O=C(O)C1CCCN(CC=C=C(c2ccc(F)cc2)c2ccc(F)cc2)C1 (racemic)
6.25

Field: pKi (mGAT1 (Mus musculus)). Entry: O=C(O)C1CCCN(CC=C=C(c2ccc(Cl)cc2)c2ccc(Cl)cc2)C1 (racemic)
6.81
